Recorded values, source patent US20240254138A1.

Known log10(kinact/KI) of a selection of compounds
# Test Target: CDK7/cyclinH/MAT1 trimeric complex (Homo sapiens, UniProt P50613)
# Sequence (P50613 whole entry): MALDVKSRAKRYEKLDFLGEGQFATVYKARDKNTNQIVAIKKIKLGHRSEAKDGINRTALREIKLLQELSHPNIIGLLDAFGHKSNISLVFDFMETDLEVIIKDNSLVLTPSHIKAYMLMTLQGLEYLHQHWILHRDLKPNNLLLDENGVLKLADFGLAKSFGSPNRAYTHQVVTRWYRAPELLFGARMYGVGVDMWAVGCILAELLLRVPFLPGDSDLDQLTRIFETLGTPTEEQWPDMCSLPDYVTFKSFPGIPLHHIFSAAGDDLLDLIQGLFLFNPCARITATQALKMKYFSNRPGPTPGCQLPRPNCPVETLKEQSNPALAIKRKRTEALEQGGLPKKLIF
# Sequence (P51946 whole entry partner): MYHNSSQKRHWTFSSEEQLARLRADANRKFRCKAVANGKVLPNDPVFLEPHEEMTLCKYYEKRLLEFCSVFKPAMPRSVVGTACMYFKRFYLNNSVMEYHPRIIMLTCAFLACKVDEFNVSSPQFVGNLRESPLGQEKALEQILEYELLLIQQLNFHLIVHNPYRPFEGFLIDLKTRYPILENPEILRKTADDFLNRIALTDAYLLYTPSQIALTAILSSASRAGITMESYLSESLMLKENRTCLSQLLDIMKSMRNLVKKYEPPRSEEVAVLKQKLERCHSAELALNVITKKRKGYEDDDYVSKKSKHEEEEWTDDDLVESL
# Sequence (P51948 whole entry partner): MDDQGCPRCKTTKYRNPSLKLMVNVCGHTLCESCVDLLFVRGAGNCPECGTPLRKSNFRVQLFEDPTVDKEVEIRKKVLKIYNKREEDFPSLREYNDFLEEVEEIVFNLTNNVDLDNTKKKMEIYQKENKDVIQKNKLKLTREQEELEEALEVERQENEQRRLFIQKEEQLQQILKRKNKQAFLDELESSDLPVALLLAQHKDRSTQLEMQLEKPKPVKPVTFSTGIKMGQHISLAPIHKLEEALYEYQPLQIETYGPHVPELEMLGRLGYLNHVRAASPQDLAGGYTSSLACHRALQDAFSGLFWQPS
# Experimental Details: In vitro CDK7 assay, potency of irreversible covalent inhibitors (kinact/KI), coupled PK/LDH ADP readout at 340 nm
# Condition Parameters: read-out: CDK7 (20 nM enz.) (kinact/KI, M^−1*s^−1), 20 nM enzyme
Please keep in mind that the values are log10 of kinact/KI expressed in M⁻¹ s⁻¹.

Compound: C=CC(=O)N1CC(N2CC[C@@H](c3cc4c(c(C)n3)O[C@H](C)c3c(N5CCOCC5)ccnc3N4)C2)C1 (single isomer, unassigned) [Compound 319]
log10(kinact/KI): 3.12

Compound: Cc1nc(C2CCN(C3CN(C(=O)/C=C/C(=O)OC(C)C)C3)CC2)cc2c1OCc1c(-c3cnn(C)c3)ccnc1N2 [Compound 436]
log10(kinact/KI): 2.14

Compound: CC#CC(=O)N1CCC(N2CCC(c3cc4c(c(C)n3)OCc3c(N5CCOCC5)ccnc3N4)CC2=O)CC1 (stereo not drawn) [Compound 484]
log10(kinact/KI): 2.46

Compound: C=CC(=O)N1CC[C@@H](N2CC(c3cc(C)c4c(c3)Nc3nccc(C5CCOCC5)c3CO4)C2)[C@H](F)C1 (racemic) [Compound 206]
log10(kinact/KI): 3.00

Compound: CC#CC(=O)N1CC(N2CC[C@H](c3cc4c(c(C)n3)OCc3c(N5CCOCC5)ccnc3N4)C2)C1 (single isomer, unassigned) [Compound 387]
log10(kinact/KI): 1.69

Next, consider the following compound.
Reading of log10(kinact/KI) for C=CC(=O)N1CC[C@@H](N2CC(c3cc(C)c4c(c3)Nc3nccc(C5CCOCC5)c3CO4)C2)C1 (single isomer, unassigned) [Compound 196] with CDK7/cyclinH/MAT1 trimeric complex (Homo sapiens, UniProt P50613): 2.70

###

# Test Target: CDK7/cyclinH/MAT1 trimeric complex (Homo sapiens, UniProt P50613)
# Experimental Details: In vitro CDK7 assay, potency of irreversible covalent inhibitors (kinact/KI), coupled PK/LDH ADP readout at 340 nm
# Condition Parameters: read-out: CDK7 (20 nM enz.) (kinact, s^−1), 20 nM enzyme
Recorded Metric: kinact (s⁻¹)
// return numeric value only (unit: s⁻¹, not printed)

Consider the reported kinact for these molecules:
Molecule: C=CC(=O)N1CC[C@H](N2CC(c3cc4c(c(C)n3)OCc3c(C5CCOCC5)ccnc3N4)C2)[C@@H](F)C1 (mixture of isomers)
kinact (s⁻¹): 2.7e-05
--
Molecule: C=CC(=O)N1CC(N2CCC(c3ccc4c(c3)Nc3ncc(Cl)c(N5CCS(=O)(=O)CC5)c3CO4)CC2)C1
kinact (s⁻¹): 6.43e-05
--
Molecule: CC#CC(=O)N1CC[C@@H](N2CC(c3cc4c(c(C5CC5)n3)OCc3c(N5CCOCC5)ccnc3N4)C2)C1 (single isomer, unassigned)
kinact (s⁻¹): 2.48e-05
--
Molecule: C=CC(=O)N1CC(N2CCC(c3cc4c(c(C)n3)OCc3c(N5CCOCC5)ccnc3N4)CC2)C1
kinact (s⁻¹): 7.26e-05
--
Molecule: C=CC(=O)N=S1(=O)CCN(c2ccnc3c2COc2ccc(C4CCN(C5CN(C(=O)C=C)C5)CC4)cc2N3)CC1
kinact (s⁻¹): 3.79e-05

Reading of kinact for C=CC(=O)N1CCC(N2CC(c3cc(Cl)c4c(c3)Nc3nccc(C5CCOCC5)c3CO4)C2)CC1 with CDK7/cyclinH/MAT1 trimeric complex (Homo sapiens, UniProt P50613): 3.38e-05

Reading of kinact for C=CC(=O)N1CCC(N2CCC(c3ccc4c(c3)Nc3nccc(N5CCS(=N)(=O)CC5)c3CO4)CC2)CC1 with CDK7/cyclinH/MAT1 trimeric complex (Homo sapiens, UniProt P50613): 6.16e-05

Reading of kinact for C=CC(=O)N1CC(N2CCC(O)(c3ccc4c(c3)Nc3nccc(N5CCOCC5)c3CO4)CC2)C1 with CDK7/cyclinH/MAT1 trimeric complex (Homo sapiens, UniProt P50613): 4.16e-05

Reading of kinact for C=CC(=O)N1CCC(N2CC(c3cc(F)c4c(c3)Nc3nccc(C5CCOCC5)c3CO4)C2)CC1 with CDK7/cyclinH/MAT1 trimeric complex (Homo sapiens, UniProt P50613): 4.53e-05

Reading of kinact for C=CC(=O)N1CC[C@@H](N2CC(c3cc(C)c4c(c3)Nc3nccc(-c5cnn(C)c5)c3CO4)C2)[C@@H](F)C1 (mixture of isomers) with CDK7/cyclinH/MAT1 trimeric complex (Homo sapiens, UniProt P50613): 3.6e-05
